molecular target: AMP-activated protein kinase, AMPK (Homo sapiens) (UniProt P54646+O43741+P54619+Q9UGJ0+Q9Y478+Q13131+Q9UGI9); test: AMP-dependent Kinase enzyme assay. An in vitro enzyme assay that detects ADP turnover that is directly proportional to AMPK activity. This uses naive AMPK that is activated during the assay with MK-8722; format: functional; parameters: scale not given: direction of the effect not stated beside the values; conditions: 30 µM
Measured Percent Effect values are reported for all entries that follow.
Hi! Could you send only the number? It should be in %, unit omitted.

Solved cases (8 shown):
compound | Percent Effect [%]
CCOC(=O)c1n[nH]cc1CN1CCOC(Cc2ccccc2)C1 (stereo not given) | -0.201
CCC(C)C(=O)Nc1ccc(CCN2CCOCC2)cc1 (stereo not given) | 11.3
O=C(CC1C=CCC1)N1CCc2ncnc(NCc3ccon3)c2CC1 (stereo not given) | 21.6
O=C1[C@@H]2C[C@H](O)CCN2C(=O)CN1CCSc1ccccn1 | -5.57
O=C(C1CC(c2ccccc2)=NO1)N1CCCCc2ccccc21 (stereo not given) | 4.65
Cc1nc(C2CCCNC2)cc(N2CCc3nc(N)sc3C2)n1 (stereo not given) | 3.73
OCCN1CCCC(c2cccc(-c3ccccc3F)n2)C1 (stereo not given) | 20.3
COc1ccccc1CCNC(=O)CNCC1CN(C)CCO1 (stereo not given) | -4.87

Input line: Provide only the value of recorded Percent Effect for CCN(CC1CCCO1)C(=O)NCCNC(=O)c1ccccc1F (stereo not given)
Output line: 1.37

Input line: Provide only the value of recorded Percent Effect for `COc1ccc(N2CCC(NC(=O)c3ccc(C#N)cc3)CC2)cc1`
Output line: 5.1

Input line: Provide only the value of recorded Percent Effect for `CC(=O)N1CCC(NC(=O)CN2CCCc3c(C)ccc(F)c32)CC1`
Output line: 5.92

Input line: Provide only the value of recorded Percent Effect for `Cc1csc(C(C)(C)NCCOc2ccc(CC#N)cc2)n1`
Output line: -8.66

Input line: Provide only the value of recorded Percent Effect for `N#CCCn1cnc2c(Br)cccc2c1=O`
Output line: -5.95

Input line: Provide only the value of recorded Percent Effect for `O=C(c1cc(C2CC2)nc2onc(-c3ccccc3)c12)N1CC(O)C1`
Output line: 2.65

Input line: Provide only the value of recorded Percent Effect for `COCCNC(=O)c1cnc(C)nc1C`
Output line: 3.33

Input line: Provide only the value of recorded Percent Effect for `Cc1nnsc1CNC(=O)Nc1cccc(N2CCN(C)C2=O)c1`
Output line: -11

Input line: Provide only the value of recorded Percent Effect for `CC(=O)NCCNC(=O)c1cc(COc2ccccc2)[nH]n1`
Output line: 14.5

* * *

target: Arginase-2, mitochondrial (Homo sapiens) (UniProt P78540); assay: in vitro enzyme assay to detect the production of urea directly proportional to the activity of Arginase II; format: functional; design: scale not given: in the data most compounds retested in dose-response had high values; conditions: 33.3 µM
Sequence (P78540 whole entry): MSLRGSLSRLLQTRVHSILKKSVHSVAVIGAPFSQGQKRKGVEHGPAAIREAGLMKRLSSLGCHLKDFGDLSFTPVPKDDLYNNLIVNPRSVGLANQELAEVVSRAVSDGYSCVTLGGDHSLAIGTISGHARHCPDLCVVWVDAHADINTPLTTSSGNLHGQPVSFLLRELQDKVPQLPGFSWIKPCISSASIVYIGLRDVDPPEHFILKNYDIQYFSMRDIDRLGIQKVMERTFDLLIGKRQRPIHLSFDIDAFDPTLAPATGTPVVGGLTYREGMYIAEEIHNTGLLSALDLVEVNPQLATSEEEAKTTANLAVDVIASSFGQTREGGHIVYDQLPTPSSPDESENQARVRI
Consider the reported Percent Effect of an entry and match it to a band in bucket 1: < 1%; bucket 2: ≥ 1% and < 3%; bucket 3: ≥ 3%

Use these answered entries as a reference point.
compound | target-or-system | group
CCC(=O)N1CCCC1c1nccnc1Nc1nc(C)cc(C)n1 (centres undefined) | Arginase-2, mitochondrial (Homo sapiens) (UniProt P78540) | bucket 2
CN1CCC/C1=N\S(=O)(=O)c1ccc(NC(=O)CCc2cccs2)cc1 | Arginase-2, mitochondrial (Homo sapiens) (UniProt P78540) | bucket 3
C[C@@H]1CN(C(=O)c2cccs2)C[C@]12CCN(CCN(C)C)C2=O | Arginase-2, mitochondrial (Homo sapiens) (UniProt P78540) | bucket 1
Cc1ccc(-c2nc(CN3CCn4c(nnc4C4CC4)C3)co2)cc1 | Arginase-2, mitochondrial (Homo sapiens) (UniProt P78540) | bucket 1
CC(C)c1cc(N2CCN(c3ccc(O)cc3)CC2)n2nccc2n1 | Arginase-2, mitochondrial (Homo sapiens) (UniProt P78540) | bucket 3

Input line: Which Percent Effect category applies to `CC(C)c1nnc2n1CCN(C(=O)c1ccc3cc[nH]c3c1)C2` here?
Output line: bucket 2

Input line: Which Percent Effect category applies to `COc1ccc(CC(=O)N2CCc3nnc(N(C)C)cc3C2)cc1F` here?
Output line: bucket 2

Input line: Which Percent Effect category applies to `Cc1cccc(CN2CCc3nnc(CO)n3CC2)n1` here?
Output line: bucket 2

Input line: Which Percent Effect category applies to Cc1cnn(CC2CCCN2C(=O)c2ccc(C(N)=O)cn2)c1 (centres undefined) here?
Output line: bucket 2

* * *

species on record: Homo sapiens; experiment: To identify inhibition of the IFN signalling (Jak-Stat) pathway via expression of an eGFP reporter gene under the control of an IFN-stimulated response element (ISRE) containing MxA promoter.; assay type: functional; set-up: scale not given: direction of the effect not stated beside the values; settings: 30 µM
Measured Percent Effect values are reported for all entries that follow.
Hi! Could you send only the number? It should be in %, unit omitted.

compound | experimental-readout | units-symbol | obs-value
CC(=O)N1N=C(c2ccccc2)OC1C(=O)NCCc1cccc(Cl)c1 (configuration not stated) | Percent Effect | % | 8.59

Input line: Provide only the value of recorded Percent Effect for O=c1c2ccccc2nc2n1C(CSc1ccc(Cl)cc1Cl)CN2 (configuration not stated)
Output line: 32.9

Input line: Provide only the value of recorded Percent Effect for `CC(C)CN1CCC2(CCN(Cc3ccoc3)CC2)C1=O`
Output line: -0.618

Input line: Provide only the value of recorded Percent Effect for `CCc1cc(C(F)(F)F)c2c(C)nn(CC(=O)O)c2n1`
Output line: 15.7

Input line: Provide only the value of recorded Percent Effect for Cc1cnc(CN2CCCC2c2noc(C)n2)cn1 (configuration not stated)
Output line: -11.3

Input line: Provide only the value of recorded Percent Effect for `CC(C)c1cc(NC(=O)CN2CCNC(=O)C2)on1`
Output line: 1.34

Input line: Provide only the value of recorded Percent Effect for CCc1nc(C2CCCN2C(=O)CCCn2cccn2)no1 (configuration not stated)
Output line: 4.76

* * *

Measured Percent Effect values are reported for all entries that follow.
target: Tyrosyl-tRNA synthetase, putative (Trypanosoma cruzi (strain CL Brener)); assay: Trypanosoma cruzi tyrosyl tRNA synthetase (TcYRS) SOP; assay type: functional; parameters: scale not given: direction of the effect not stated beside the values; settings: 30 µM
Hi! Could you send only the number? It should be in %, unit omitted.

Solved cases (8 shown):
compound | Percent Effect (%)
CC(C)OCCN(C)C(C)c1cccc(S(N)(=O)=O)c1 (centres undefined) | -2.35
Cc1cc(C(=O)NC2CCc3nc(C)cn3C2)[nH]n1 (centres undefined) | 5.13
COc1ccc(CN2CCC3(CC2)CCN(CC(C)C)C3=O)cc1 | 0
Cc1cc(C)n2cc(CN3CCCC3Cn3nc(C)nc3C)nc2n1 (centres undefined) | 15.4
Cc1nc(N2CCCC2)nc2c1CN(C(=O)N1CCOCC1)CC2 | 15
CN(C)c1ccc(NC(=O)NCc2ccccn2)cn1 | 18.8
Cc1nc(CNCC2CN(C)CCO2)cs1 (centres undefined) | 21.2
CCc1noc(C(C)N2CCC(N3CCCC3)CC2)n1 (centres undefined) | 12.8

Input line: Provide only the value of recorded Percent Effect for `Cc1cccc(CN2C(=O)CCC23CCN(c2ncc(F)cn2)CC3)n1`
Output line: 15

Input line: Provide only the value of recorded Percent Effect for CC1(C)OCC(CNC(=O)c2cnn(-c3ccc(Cl)cc3)c2N)O1 (centres undefined)
Output line: 2.5

Input line: Provide only the value of recorded Percent Effect for Cc1cn[nH]c1C1CCCCN1C(=O)CCN1CCCCCC1 (centres undefined)
Output line: 5

Input line: Provide only the value of recorded Percent Effect for `CNC(=O)CN1CCCC12CCN(C(=O)c1ccc(F)cc1)CC2`
Output line: -5

Input line: Provide only the value of recorded Percent Effect for Cc1ncc(S(C)(=O)=O)c(C2CCCNC2)n1 (centres undefined)
Output line: 12.2

Input line: Provide only the value of recorded Percent Effect for `CN(CC(=O)Nc1ccc(Br)cn1)C(=O)Cc1ccc(O)cc1`
Output line: -82

* * *

target: AMP-activated protein kinase, AMPK (Homo sapiens) (UniProt P54646+O43741+P54619+Q9UGJ0+Q9Y478+Q13131+Q9UGI9); test: AMP-dependent Kinase enzyme assay. An in vitro enzyme assay that detects ADP turnover that is directly proportional to AMPK activity. This uses naive AMPK that is activated during the assay with MK-8722; type: functional; parameters: scale not given: direction of the effect not stated beside the values; conditions: 30 µM
experimental-readout: Percent Effect (%)
Hi! Could you send only the number? It should be in %, unit omitted.

compound | experimental-readout | obs-value
Cn1cc(CN2CCOC(Cc3cccc(F)c3)C2)cn1 (stereo not drawn) | Percent Effect | 4.61

Input line: Provide only the value of recorded Percent Effect for `COc1ccc(Cl)cc1CN(CC(N)=O)C(C)C`
Output line: -4.14

Input line: Provide only the value of recorded Percent Effect for CN(C)C(CNC(=O)OCC(F)(F)F)c1ccsc1 (stereo not drawn)
Output line: -1.15

Input line: Provide only the value of recorded Percent Effect for Cc1cc(C2CCCN(CC(=O)N3CCCc4ccccc43)C2)n[nH]1 (stereo not drawn)
Output line: -5.06

Input line: Provide only the value of recorded Percent Effect for CCC(NC(=O)c1cc(NC(C)=O)ccc1Cl)c1cc(C)ccn1 (stereo not drawn)
Output line: 2.39

Input line: Provide only the value of recorded Percent Effect for `O=C(CCn1cccn1)N1CCC(c2nnc(-c3ccsc3)o2)CC1`
Output line: 4.17

Input line: Provide only the value of recorded Percent Effect for `COc1c(C)cnc(CN2CCn3c(nnc3C3CC3)C2)c1C`
Output line: 8.46

Input line: Provide only the value of recorded Percent Effect for CCC(=O)c1cccc(S(=O)(=O)NC(C)C#N)c1 (stereo not drawn)
Output line: -2.44
